- Read-out: solute carrier (SLC22A1), SLC22A1 (gene 6580)
- protocol summary: LTEA_HepaRG_SLC22A1: Life Technologies and Expression Analysis (LTEA) Assay for solute carrier (SLC22A1) using HepaRG (AID 2283524)
- measurement setup: mRNA level, 48 h; actives raise or lower the signal
Calls of active or inactive are those of the source. The calls were made as follows: active = hit-call score of the fitted dose curve at least 0.9, where 1 is the maximum; inactive = score below 0.9.
// one of yes = active, no = inactive, no free text

Solved cases below.
>>> assigned_label("CCCOC(=O)NCCCN(C)C")
"no"
>>> assigned_label("CCCCC(CC)COC(=O)c1ccccc1C(=O)O (centres undefined)")
"no"
>>> assigned_label("c1ccc(Nc2ccccc2)cc1")
"no"
>>> assigned_label("CCSC(=O)N(CC(C)C)CC(C)C")
"no"

Would you kindly look at the next entry?
Please share the test call associated with CCCCCOC(=O)COc1cc(N2C(=O)C3=C(CCCC3)C2=O)c(F)cc1Cl . no

----------
- System: turtle Estrogen Receptor (ERa), gene 101933533
- protocol summary: ATG_trERa_XSP2: Attagene TRANS-FACTORIAL Multi-Species (XSP2) HepG2 Assay for turtle Estrogen Receptor (ERa) (AID 2283812);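 also: human HepG2 liver cells transiently expressing turtle ERa-Gal4 chimeric receptor; reporter mRNA from GAL4-UAS units measured by RT-PCR and capillary electrophoresis; actives raise reporter signal above DMSO so AC50 reflects agonist activity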
Records with an inconclusive call do not appear. Activity calls are given as the source filed them. How the source made its calls: active means hit-call score of the fitted dose curve at least 0.9, where 1 is the maximum; inconclusive means response in the unintended direction; inactive means score below 0.9.
assay endpoint: AC50

// known answers, use as guide
>>> readout_value("CC(C)CCCCCCc1ccc(O)cc1")
"989 nM (active)"
>>> readout_value("Oc1ccc(C(c2ccc(O)cc2)C(Cl)(Cl)Cl)cc1")
"inactive"
>>> readout_value("CCCCC(CC)CN1C(=O)C2C3C=CC(C3)C2C1=O (stereo unspecified)")
"inactive"
>>> readout_value("CC(=O)S[C@@H]1CC2=CC(=O)CC[C@]2(C)[C@H]2CC[C@@]3(C)[C@@H](CC[C@@]34CCC(=O)O4)[C@H]12")
"inactive"

Record C=CCOC(Cn1ccnc1)c1ccc(Cl)cc1Cl (stereo unspecified) : what is its AC50 with turtle Estrogen Receptor (ERa), gene 101933533? inactive

Record CSC(=O)c1cccc2nnsc12 : what is its AC50 with turtle Estrogen Receptor (ERa), gene 101933533? inactive

----------
Each entry below carries its recorded AC50.
- System: frog Estrogen Receptor (ESR2), gene 100174814
- protocol summary: ATG_frER2_XSP1: Attagene TRANS-FACTORIAL Multi-Species (XSP1) HepG2 Assay for frog Estrogen Receptor (ESR2) (AID 2283774)
Inconclusive results are not listed. Activity calls are given as the source filed them. How the source made its calls: active means hit-call score of the fitted dose curve at least 0.9, where 1 is the maximum; inconclusive means response in the unintended direction; inactive means score below 0.9.

Record CCCCC(CC)COC(=O)c1ccccc1C(=O)O (stereo not given) : what is its AC50 with frog Estrogen Receptor (ESR2), gene 100174814? 61800 nM (active)

Record CC(C)(c1ccc(O)cc1)c1ccc(O)cc1 : what is its AC50 with frog Estrogen Receptor (ESR2), gene 100174814? 374 nM (active)

Record Oc1ccc(C(c2ccc(O)cc2)C(Cl)(Cl)Cl)cc1 : what is its AC50 with frog Estrogen Receptor (ESR2), gene 100174814? 34.2 nM (active)

Record CC(C)CCCCCCc1ccc(O)cc1 : what is its AC50 with frog Estrogen Receptor (ESR2), gene 100174814? 752 nM (active)

Record CC1(C)C(C=C(Cl)Cl)C1C(=O)OCc1cccc(Oc2ccccc2)c1 (stereo not given) : what is its AC50 with frog Estrogen Receptor (ESR2), gene 100174814? 2790 nM (active)

----------
- Read-out: catalase (CAT), CAT (gene 847)
- protocol summary: LTEA_HepaRG_CAT: Life Technologies and Expression Analysis (LTEA) Assay for catalase (CAT) using HepaRG (AID 2283452)
- measurement setup: mRNA level, 48 h; actives raise or lower the signal
Calls of active or inactive are those of the source. Rule for the calls: active = hit-call score of the fitted dose curve at least 0.9, where 1 is the maximum; inactive = score below 0.9.
// one of active, inactive, no free text

>>> assigned_label("CCCOC(=O)c1ccc(C(=O)OCCC)nc1")
"inactive"
>>> assigned_label("CCCCCOC(=O)COc1cc(N2C(=O)C3=C(CCCC3)C2=O)c(F)cc1Cl")
"inactive"
>>> assigned_label("CCOC(=O)COc1cc(-n2ncc(C(F)(F)F)c(C)c2=O)c(F)cc1Cl")
"inactive"
>>> assigned_label("COC(=O)c1ccc(I)cc1S(=O)(=O)NC(=O)Nc1nc(C)nc(OC)n1")
"inactive"
>>> assigned_label("O=C(O)C1(C(=O)Nc2ccc(Cl)cc2Cl)CC1")
"active"

Please share the test call associated with CCNc1nc(N)nc(Cl)n1 . inactive

Please share the test call associated with COc1c(Cl)ccc(Cl)c1C(=O)O . inactive

Please share the test call associated with CSC(=O)c1cccc2nnsc12 . inactive

Please share the test call associated with CC(C)CCCCCCc1ccc(O)cc1 . inactive

Please share the test call associated with CCCCOC(=O)[C@@H](C)Oc1ccc(Oc2ccc(C(F)(F)F)cn2)cc1 . inactive

Please share the test call associated with CCOC(=O)C(C)Oc1ccc(Oc2nc3ccc(Cl)cc3o2)cc1 (configuration not stated) . inactive

Please share the test call associated with CCCCC(CC)COC(=O)c1ccccc1C(=O)O (configuration not stated) . inactive

----------
- protocol summary: CEETOX_H295R_PROG: CeeTox H295R High-throughput Steroidogenesis Assay for Progesterone (PROG) (AID 2283442);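 as to AC50: human H295R adrenal cells primed with 10 µM forskolin before dosing; progesterone secreted into medium by H295R cells measured by HPLC-MS/MS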
- measurement setup: actives raise or lower the signal
Activity calls are given as the source filed them. Rule for the calls: active = hit-call score of the fitted dose curve at least 0.9, where 1 is the maximum; inactive = score below 0.9.
assay endpoint: AC50

// known answers, use as guide
>>> readout_value("CCN(Cc1c(F)cccc1Cl)c1c([N+](=O)[O-])cc(C(F)(F)F)cc1[N+](=O)[O-]")
"inactive"
>>> readout_value("C#CCOC(=O)[C@@H](C)Oc1ccc(Oc2ncc(Cl)cc2F)cc1")
"9.01 µM (active)"
>>> readout_value("C#C[C@]1(O)CC[C@H]2[C@@H]3CCC4=CC(=O)CC[C@@H]4[C@H]3CC[C@@]21CC")
"inactive"
>>> readout_value("CCOC(=O)c1ccc(O)cc1")
"36.5 µM (active)"
>>> readout_value("CC(=O)[C@H]1CC[C@H]2[C@@H]3CCC4=CC(=O)CC[C@]4(C)[C@H]3CC[C@]12C")
"5 µM (active)"
>>> readout_value("Oc1ccc(C(c2ccc(O)cc2)C(Cl)(Cl)Cl)cc1")
"0.848 µM (active)"

Name the recorded AC50 for CCCCOC(=O)[C@@H](C)Oc1ccc(Oc2ccc(C(F)(F)F)cn2)cc1 . inactive

Name the recorded AC50 for CC(C)(C)[C@@H](O)[C@@H](Cc1ccc(Cl)cc1)n1cncn1 . inactive

Name the recorded AC50 for CC1(C)C(C=C(Cl)Cl)C1C(=O)OCc1cccc(Oc2ccccc2)c1 (configuration not stated) . 11.5 µM (active)

Name the recorded AC50 for CN(C)C(=O)Nc1ccc(Cl)c(Cl)c1 . inactive

Name the recorded AC50 for S=C(S)NCCNC(=S)S.[Mn+2].[S-]C([S-])=NCCN=C([S-])[S-].[Zn+2] . inactive

Name the recorded AC50 for CCCCC(CC)CN1C(=O)C2C3C=CC(C3)C2C1=O (configuration not stated) . inactive

----------
- protocol summary: CEETOX_H295R_OHPREG: CeeTox H295R High-throughput Steroidogenesis Assay for OH-Pregnenolone (OHPREG) (AID 2283434)
- measurement setup: actives raise or lower the signal
Calls of active or inactive are those of the source. Rule for the calls: active = hit-call score of the fitted dose curve at least 0.9, where 1 is the maximum; inactive = score below 0.9.
assay endpoint: AC50

>>> readout_value("CSC(=O)c1cccc2nnsc12")
"55600 nM (active)"
>>> readout_value("CN(C)C(=O)Nc1ccc(Cl)c(Cl)c1")
"inactive"
>>> readout_value("CCCCC(CC)CN1C(=O)C2C3C=CC(C3)C2C1=O (stereo not given)")
"inactive"
>>> readout_value("CCCCOC(=O)[C@@H](C)Oc1ccc(Oc2ccc(C(F)(F)F)cn2)cc1")
"inactive"
>>> readout_value("CCCCCOC(=O)COc1cc(N2C(=O)C3=C(CCCC3)C2=O)c(F)cc1Cl")
"inactive"

# next compound below
Name the recorded AC50 for CC(=O)S[C@@H]1CC2=CC(=O)CC[C@]2(C)[C@H]2CC[C@@]3(C)[C@@H](CC[C@@]34CCC(=O)O4)[C@H]12 . 805 nM (active)

----------
- Read-out: Macrophage colony-stimulating factor (MCSF), CSF1 (gene 1435)
- protocol summary: BSK_hDFCGF_MCSF: BioMAP Diversity Plus: hDFCGF Assay for Macrophage colony-stimulating factor (MCSF) Biomarker Activity (AID 2283060)
- measurement setup: primary human foreskin fibroblasts; actives raise or lower the signal
The source made the active and inactive calls. Rule for the calls: active = hit-call score of the fitted dose curve at least 0.9, where 1 is the maximum; inactive = score below 0.9.
// one of y for active, n for inactive, no free text

>>> assigned_label("CCCOC(=O)c1ccc(C(=O)OCCC)nc1")
"n"

Please share the test call associated with COC(=O)c1ccccc1C(=O)O . n

Please share the test call associated with CC(C)(c1ccc(O)cc1)c1ccc(O)cc1 . n

Please share the test call associated with Cc1nn(C)c(Oc2ccccc2)c1C=NOCc1ccc(C(=O)OC(C)(C)C)cc1 . y

Please share the test call associated with CCCCCOC(=O)COc1cc(N2C(=O)C3=C(CCCC3)C2=O)c(F)cc1Cl . y

Please share the test call associated with CCCCOC(=O)[C@@H](C)Oc1ccc(Oc2ccc(C(F)(F)F)cn2)cc1 . n

Please share the test call associated with CCCCOC(=O)C(C)Oc1ccc(Oc2ccc(C(F)(F)F)cn2)cc1 (stereo not drawn) . n

Please share the test call associated with CCOC(=O)COc1cc(-n2ncc(C(F)(F)F)c(C)c2=O)c(F)cc1Cl . n

Please share the test call associated with COC(=O)c1cccc(C)c1S(=O)(=O)NC(=O)Nc1nc(OCC(F)(F)F)nc(N(C)C)n1 . n

Please share the test call associated with CCN(Cc1c(F)cccc1Cl)c1c([N+](=O)[O-])cc(C(F)(F)F)cc1[N+](=O)[O-] . n

Please share the test call associated with CCOC(=O)[C@H](C)Oc1ccc(Oc2nc3ccc(Cl)cc3o2)cc1 . n

Please share the test call associated with CCNc1nc(N)nc(Cl)n1 . n

Please share the test call associated with COc1nc(C)nc(NC(=O)NS(=O)(=O)c2ccccc2OCCCl)n1 . n

Please share the test call associated with CCCCOCCOCCOCc1cc2c(cc1CCC)OCO2 . y

Please share the test call associated with COC(=O)c1ccc(CNS(C)(=O)=O)cc1S(=O)(=O)NC(=O)Nc1nc(OC)cc(OC)n1 . n

Please share the test call associated with CCCCCCC(C)OC(=O)COc1nc(F)c(Cl)c(N)c1Cl (stereo not drawn) . y

Please share the test call associated with CCCN(CCC)c1c([N+](=O)[O-])cc(C(F)(F)F)c(N)c1[N+](=O)[O-] . y

Please share the test call associated with c1ccc2[nH]c(-c3cscn3)nc2c1 . n

Please share the test call associated with N[C@@H](Cc1cc(I)c(Oc2ccc(O)c(I)c2)c(I)c1)C(=O)O . n
